Tested on: MERTK
Condition Context: concentration: 1 μM, replicates: in singlicate; n = 1;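 further: KINOMEscan kinase panel screen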
Each entry below carries its reported %Inh.
Numbers only here, please. The scale is %.

>>> measured_number("CCCCCc1nc2c(N)ncnc2n1CCCCC [SKF-97255]")
17
>>> measured_number("COc1ccc(Nc2nccc(N3CCC(NC(=O)Nc4cc(C)ccc4C)C3)n2)cc1 (stereo not drawn) [GSK1379741]")
24
>>> measured_number("CNc1ncnc2[nH]ncc12 [SKF-18355]")
0
>>> measured_number("O=C(NCCNc1ccnc(Nc2ccc(F)cc2)n1)Nc1ccccc1F [GSK1379880]")
7
>>> measured_number("O=c1cc(N2CCOCC2)nc2n(Cc3cccc(F)c3)ccn12 [GSK2297430]")
16

As a next step, examine the compound that follows.
QUERY: Entry under review: COc1cc(Nc2nccc(N3CCC(NC(=O)c4cccc(NC(C)=O)c4)C3)n2)cc(OC)c1OC (stereo not drawn) [GSK1379754] . Reported %Inh?
RESULT: 30

###

Tested on: PRKCH
Condition Context: concentration: 1 μM, replicates: in singlicate; n = 1
Readout Name: %Inh (%)
Numbers only here, please. The scale is %.

Past entries and their recorded results:
>>> measured_number("CN(C(=O)c1ccc(-c2cc(-c3c[nH]nc3-c3ccccn3)ccn2)cc1)C1CCOCC1")
0
>>> measured_number("O=C1NC(=O)C(N2CCc3ccccc32)=C1c1cccc(Cl)c1")
13
>>> measured_number("NCC(NC(=O)c1cc(-c2cn[nH]c2)c(-c2ccnc3[nH]ccc23)s1)c1ccccc1.O=C(O)C(F)(F)F.O=C(O)C(F)(F)F (stereo not shown)")
95.1
>>> measured_number("O=C(NCCCN1CCOCC1)c1cccc(Nc2nccc(Nc3ccc(Oc4ccccc4)cc3)n2)c1")
0
>>> measured_number("Cn1ccc2ncnc(Oc3ccc(NC(=O)Nc4ccncc4)c(Cl)c3)c21")
16

As a next step, examine the molecule that follows.
QUERY: Entry under review: "c1ccc(-c2n[nH]cc2-c2ccnc3ccccc23)nc1" . Reported %Inh?
RESULT: 9

###

Each entry below carries its reported %Inh.
Test system: BIKE
Construct: gene BMP2K
Condition Context: concentration: 1 μM, replicates: in singlicate; n = 1
Numbers only here, please. The scale is %.

>>> measured_number("Cc1ccc(NC(=O)c2ccnc(N3CCN(C)CC3)c2)cc1-c1ccc(C(=O)NCC2CC2)cc1")
0

QUERY: Entry under review: "O=C(Nc1n[nH]c2cc(-c3cccc(F)c3)ccc12)C1CC1" . Reported %Inh?
RESULT: 21

QUERY: Input "NS(=O)(=O)CCc1cccc(Nc2nccc(-c3c(-c4cccc(NC(=O)c5c(F)cccc5F)c4)nn4ccccc34)n2)c1"
RESULT: 27

QUERY: Input "N#Cc1c(N2CCOCC2)sc(-c2ccn[nH]2)c1-c1ccc(Cl)cc1"
RESULT: 0

QUERY: Input "CCCCCc1nc2c(N)ncnc2n1CCCCC"
RESULT: 0

QUERY: Input NCC(NC(=O)c1cc(-c2cn[nH]c2)c(-c2ccnc3[nH]ccc23)s1)c1ccccc1.O=C(O)C(F)(F)F.O=C(O)C(F)(F)F (stereo not drawn)
RESULT: 99.7

###

System: LZK
Construct: gene MAP3K13
Condition Context: concentration: 1 μM, replicates: in singlicate; n = 1
Readout Name: %Inh (%)
Numbers only here, please. The scale is %.

Past entries and their recorded results:
>>> measured_number("CNc1ncnc2[nH]ncc12")
27
>>> measured_number("COc1ccc(CNC(=O)NC2CCN(c3ccnc(Nc4ccc(OC)cc4)n3)C2)cc1 (centres unmarked)")
0
>>> measured_number("c1ccc(-c2cc(-c3c[nH]nc3-c3ccccn3)ccn2)cc1")
10
>>> measured_number("COC(=O)Nc1nc2cc(Oc3ccc(NC(=O)Nc4cc(F)ccc4F)cc3)ccc2[nH]1.Cl")
37
>>> measured_number("COc1cc2c(cc1OC[C@@H](O)CO)ncc1c3ccc(C#N)cc3[nH]c21")
8
>>> measured_number("CCc1nc(-c2cccc(C)c2)c(-c2ccnc(NCc3ccccc3)c2)s1")
0
>>> measured_number("O=c1cc(N2CCOCC2)nc2n(Cc3cccc4ccccc34)ccn12")
0
>>> measured_number("NS(=O)(=O)c1cccc(-c2ccc3ncc(N4CCOCC4)nc3c2)c1")
23

QUERY: Entry under review: "NS(=O)(=O)CCc1cccc(Nc2nccc(-c3c(-c4cccc(NC(=O)c5c(F)cccc5F)c4)nn4ccccc34)n2)c1" . Reported %Inh?
RESULT: 0

QUERY: Input "Fc1ccc(-c2ncn(CCCN3CCOCC3)c2-c2ccccn2)cc1"
RESULT: 0

QUERY: Input "Cl.Nc1ncnc2occ(-c3ccc(NC(=O)Nc4cc(C(F)(F)F)ccc4F)cc3)c12"
RESULT: 40
